Measured values drawn from patent US11918624B2 for this set.

Overview of reported Hemolysis inhibition (% of maximum) across a group of sequences:
System: guinea pig complement
Test method notes: antibody dependent complement mediated hemolysis assay
Type: biochemical
Experimental context: 1 ug/mL peptide added to guinea pig complement, titrated against turkey erythrocytes with hemolysin
Ends that are not written are not given here.

TAYVVKVFSLAVN [TAY1409, TAYVVKVFSLAVN]    ≤20%
QALPYSTVGNSNL [QAL1363, QALPYSTVGNSNL]    >40-60%

# input sequence: SDAGLTFTSS [SDA984, SDAGLTFTSS] ; wanted: its Hemolysis inhibition (% of maximum)
>80%

# input sequence: LTAYVVKVFSLA [LTA1309, LTAYVVKVFSLA] ; wanted: its Hemolysis inhibition (% of maximum)
>80%

# input sequence: APNHLLEVRV [AP1314, APNHLLEVRV] ; wanted: its Hemolysis inhibition (% of maximum)
>80%

# input sequence: SDKKGICVADPFEVT [SDK1606, SDKKGICVADPFEVT] ; wanted: its Hemolysis inhibition (% of maximum)
>80%

# input sequence: LNCQRYYGGGGYST [LNC1538, LNCQRYYGGGGYST] ; wanted: its Hemolysis inhibition (% of maximum)
>20-40%

---

Assay target: C5a receptor (Homo sapiens)
Construct: U937 cells bearing the C5a receptor were preincubated with this peptide; endogenous in cells; host or cells: U937 cells, cAMP stimulated
Sequence (P21730 whole entry): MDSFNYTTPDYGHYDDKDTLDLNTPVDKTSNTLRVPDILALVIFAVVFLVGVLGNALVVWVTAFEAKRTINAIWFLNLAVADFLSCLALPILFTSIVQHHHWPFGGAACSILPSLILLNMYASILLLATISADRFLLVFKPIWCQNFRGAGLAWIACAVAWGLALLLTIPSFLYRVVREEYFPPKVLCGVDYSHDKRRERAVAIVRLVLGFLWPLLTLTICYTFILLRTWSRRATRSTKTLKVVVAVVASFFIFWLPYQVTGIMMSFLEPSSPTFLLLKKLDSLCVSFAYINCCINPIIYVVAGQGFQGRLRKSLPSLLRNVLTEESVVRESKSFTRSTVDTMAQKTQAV
Test method notes: C5a-induced Ca++ influx in C5a receptor-expressing U937 cells
Format: cell-based
Experimental context: serial dilution, FIG. 2; read-out: IC50 of C5a triggered Ca influx
Endpoint name: IC50
Hey, just the number and the unit after it is fine.

# input substance: (LRTWSRRATRSTKTLKVV)8K4K2KV [PR226MAP] ; wanted: its IC50
1 pM

---

System: guinea pig complement
Test method notes: antibody dependent complement mediated hemolysis assay
Assay type: biochemical
Experimental context: 1 ug/mL peptide added to guinea pig complement, titrated against turkey erythrocytes with hemolysin
Ends that are not written are not given here.
Overview of reported Hemolysis inhibition (% of maximum) across a group of sequences:

# input sequence: LSRKVLLDGV [LSR1099, LSRKVLLDGV] ; wanted: its Hemolysis inhibition (% of maximum)
>20-40%

# input sequence: ERLGREGVQ [ERL1041, ERLGREGVQ] ; wanted: its Hemolysis inhibition (% of maximum)
>20-40%

# input sequence: IAVHYLDETEQW [IAV1501, IAVHYLDETEQW] ; wanted: its Hemolysis inhibition (% of maximum)
≤20%

---

Tested on: guinea pig complement
Test method notes: antibody dependent complement mediated hemolysis assay
Format: biochemical
Experimental context: 1 ug/mL peptide added to guinea pig complement, titrated against turkey erythrocytes with hemolysin
Ends that are not written are not given here.
Endpoint name: Hemolysis inhibition (% of maximum)

Below, each entry is followed by its recorded Hemolysis inhibition (% of maximum) result.
ESASLRSEETKV [ESA1331, ESASLRSEETKV]    >20-40%
DDLKQLANGVDRYI [DDL1619, DDLKQLANGVDRYI]    >80%
NIFLKDSITTWE [NIF1464, NIFLKDSITTWE]    >40-60%
LHLSVRTLELRP [LHL1431, LHLSVRTLELRP]    >40-60%
QRSYTVAIA [QRS1008, QRSYTVAIA]    >40-60%

# input sequence: VQAERSGIPIVTSPYQI [VQA1857, VQAERSGIPIVTSPYQI] ; wanted: its Hemolysis inhibition (% of maximum)
>80%
